From: ChEMBL document CHEMBL3120135

- runDescription: Inhibition of Fusobacterium nucleatum recombinant N-terminal hexahistidine-tagged glutamate racemase expressed in Escherichia coli BL21 (DE3) using L-glutamate as substrate by circular dichroism based assay
Threshold-based label: IC50 under 60 mM gives Fulfilled, IC50 not under 60 mM gives Not fulfilled.

> print(dat)
                                   compound   category
1  NC1(C(=O)O)CCP(=O)(O)CC1 (stereo not given)  Fulfilled
2                         O=C1CCP(=O)(O)CC1  Fulfilled

input: Is 60 mM strictly greater than the compound's reported IC50? compound: NC1(C(=O)O)CCS(=O)(=O)CC1
output: Not fulfilled

input: Is 60 mM strictly greater than the compound's reported IC50? compound: O=C1CCS(=O)(=O)CC1
output: Fulfilled
